These entries and their values trace back to patent US20260138959A1.

// values below are reported GI50
tested on: c-KIT V560G/D816V; experiment: Proliferation inhibitory activity on Ba/F3 cell (CellTiter-Glo, 72 hours), c-KIT V560G/D816V; type: cell-based; details: Mus musculus, BaF3, c-KIT V560G/D816V cells, read-out: Cell (nM) c-KIT V560G/D816V (GI50 class)
Measured property: GI50

[
  {
    "Chem smiles": "CCN1CCC(COc2cc3ncnc(-c4ccc(NC(=O)Cc5ccc(Cl)nc5)cc4)c3cc2OC)CC1",
    "Result": "≤ 200 nM"
  },
  {
    "Chem smiles": "COc1cc2c(-c3ccc(NC(=O)Cc4ccc(C(F)(F)F)cc4)cc3)ncnc2cc1OCCCN1CCC(C)CC1",
    "Result": "≤ 200 nM"
  },
  {
    "Chem smiles": "CCN1CCC(COc2cc3ncnc(-c4ccc(NC(=O)Cc5ccc(C(F)(F)F)c(F)c5)cc4)c3cc2OC)CC1",
    "Result": "≤ 200 nM"
  }
]
